run.description: Stability in acidic environment at 25° C. (half-life of initial microbiological activity)
Assay type: physicochemical
stated.conditions: aqueous solution, pH 3
Reported half-life values are given for each entry in this list.

| molecule | unit.abbreviation | half-life |
| --- | --- | --- |
| CC[C@H]1OC(=O)[C@H](C)[C@@H](O[C@H]2C[C@@](C)(O)[C@@H](O)[C@H](C)O2)[C@H](C)[C@@H](O[C@@H]2O[C@H](C)C[C@H](N(C)C)[C@H]2O)[C@](C)(O)C[C@](C)(F)C(=O)[C@H](C)[C@@H](O)[C@H]1C [P-80202, (8S)-8-fluoroerythromycin D] | min | 600 |
| CC[C@H]1OC(=O)[C@H](C)[C@@H](O[C@H]2C[C@@](C)(OC)[C@@H](O)[C@H](C)O2)[C@H](C)[C@@H](O[C@@H]2O[C@H](C)C[C@H](N(C)C)[C@H]2O)[C@](C)(O)C[C@@H](C)C(=O)[C@H](C)[C@@H](O)[C@]1(C)O [Erythromycin A, reference compound] | min | 6 |
| CC[C@H]1OC(=O)[C@H](C)[C@@H](O[C@H]2C[C@@](C)(OC)[C@@H](O)[C@H](C)O2)[C@H](C)[C@@H](O[C@@H]2O[C@H](C)C[C@H](N(C)C)[C@H]2O)[C@](C)(O)C[C@](C)(F)C(=O)[C@H](C)[C@@H](O)[C@H]1C [P-80203, (8S)-8-fluoroerythromycin B] | min | 2700 |
| CC[C@H]1OC(=O)[C@H](C)[C@@H](O[C@H]2C[C@H](OC)[C@@H](O)[C@H](C)O2)[C@H](C)[C@@H](O[C@@H]2O[C@H](C)C[C@H](N(C)C)[C@H]2O)[C@](C)(O)C[C@](C)(F)C(=O)[C@H](C)[C@@H](O)[C@H]1C [P-80204] | min | 6000 |
| CC[C@H]1OC(=O)[C@H](C)[C@@H](O[C@H]2C[C@H](OC)[C@@H](O)[C@H](C)O2)[C@H](C)[C@@H](O[C@@H]2O[C@H](C)C[C@H](N(C)C)[C@H]2O)[C@](C)(O)C[C@](C)(F)C(=O)[C@H](C)[C@@H](O)[C@]1(C)O [P-80207] | min | 6000 |
